Attribute: Sox 17 Intensity % of control
System: H1 or H9 human embryonic stem cells
Experiment: Activin A bioassay: differentiation of human embryonic stem cells to definitive endoderm, cell number and SOX17 intensity by high content analysis (96-well, four days)
Format: cell-based
Conditions: supernatant concentration 10x, assay dilution 1:20; control = R&D Sys Activin A 100 ng/ml on same plate
Answer format: numeric, % implied, no suffix.

Please review the entries below; each comes with its answer.
Qu. Look up and report measured Sox 17 Intensity % of control for this entry: ACTN39: activin A variant peptide, SEQ ID 40 (protein) GLECDGKVNLCCKKQNFVSFKDIGWNDWIIAPSGYHANECSGLCPSHIAGTSGSSLSFHSTVINHYRMRGHSPFSDMGSCCVPTKLRPMSMLYYDDGQNIIKKDIQNMIVEECGCS
Ans. 14.0

Qu. Look up and report measured Sox 17 Intensity % of control for this entry: ACTN16: activin A variant peptide, SEQ ID 17 (protein) GLECDGKVNLCCKKQLFVSFKDIGWNDWIIAPSGYHANHCSGLCPSHIAGTSGSSLSFHSTVINHYRMRGHSPFSQMGACCVPTKLRPMSMLYYDDGQNIIKKDIQNMIVEECGCS
Ans. 214.4

Qu. Look up and report measured Sox 17 Intensity % of control for this entry: ACTN65: activin A variant peptide, SEQ ID 66 (protein) GLECDGKVNICCKKQSFGQTKDIGWNDWIIAPSGYHGGSCSGECPSHIAGTSGSSLSFHSTVINHYRMRGHSPFANLKSCCSPTKLRPMSMLYYDDGQNIIKKDIQGMKVEECGCT
Ans. 22.9

Further cases:
Qu. Look up and report measured Sox 17 Intensity % of control for this entry: ACTN53: activin A variant peptide, SEQ ID 54 (protein) GLECDGKVNICCKKQEFGQAKDIGWNDWIIAPSGYHGGGCSGECPSHIAGTSGSSLSFHSTVINHYRMRGHSPWANLKSCCSPTKLRPMSMLYYDDGQNIIKKDIQGMKVEECGCT
Ans. 5.1

Qu. Look up and report measured Sox 17 Intensity % of control for this entry: ACTN79: activin A variant peptide, SEQ ID 80 (protein) GLECDGKVNICCKKQSFGQAKDIGWNDWIIAPSGYHGGGCTGECPSHIAGTSGSSLSFHSTVINHYRMRGHSPWANLKSCCSPTKLRPMSMLYYDDGQNIIKKDIQRMVVEECGCT
Ans. 1.7

Qu. Look up and report measured Sox 17 Intensity % of control for this entry: ACTN52: activin A variant peptide, SEQ ID 53 (protein) GLECDGKVNICCKKQLFGKTKDIGWNDWIIAPSGYHGGSCTGECPSHIAGTSGSSLSFHSTVINHYRMRGHSPNANLKSCCSPTKLRPMSMLYYDDGQNIIKKDIQGMKVEECGCT
Ans. 0.3

Qu. Look up and report measured Sox 17 Intensity % of control for this entry: ACTN47: activin A variant peptide, SEQ ID 48 (protein) GLECDGKVNYCCKKQNFVSFKDIGWNDWIIAPSGYHANECSGKCPSHIAGTSGSSLSFHSTVINHYRMRGHSPFSDMGSCCIPTKLRPMSMLYYDDGQNIIKKDIQNMIVEECGCS
Ans. 45.7
